B1: mRNA-splicing (parent)
chain: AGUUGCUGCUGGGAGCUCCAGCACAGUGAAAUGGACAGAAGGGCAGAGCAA

Variants of: B1
Assay: exon inclusion enrichment index; higher = more inclusion; WT1 exon 5 minigene, HEK293
exon inclusion enrichment index values, listed per item
// keep it numeric: no unit symbol after the value

**Query** Name the reported exon inclusion enrichment index value associated with the variant G5U G8U C9U C16G
**Result** 0.0374

**Query** Would you mind telling me what exon inclusion enrichment index value was observed for G5C C6A U7G U10A ?
**Result** 0.0115

**Query** Name the reported exon inclusion enrichment index value associated with the variant G5C C6G U7C U10C C16G U17C
**Result** 2.62

**Query** Any idea what its exon inclusion enrichment index is? The variant is G5U G8U C9U G34A A35C
**Result** 0.0912
